Record form. Attribute: herbicidal effect rating, CYPSE. Fill in for each entry.
Test system: Cyperus serotinus, Rottb.
experimental_details: Preemergence weed control under flooded paddy conditions, CYPSE (Flatsedge); further: meaning of each grade not given here
Format: in vivo
measurement_conditions: Rate 0.5000 kg/ha, preemergence, rated 3-4 weeks after treatment
Please reply with the value in numeric form only.

In: Supply measured herbicidal effect rating, CYPSE of Cc1ccc(OCC(N)=O)c(-c2nsc3ccc(-n4c(=O)cc(C(F)(F)F)n(C)c4=O)cc23)c1 [Example 539] in your reply.
Out: 2.0

In: Supply measured herbicidal effect rating, CYPSE of Cc1ccc(C(=O)C(C)Oc2ccccc2-c2nsc3ccc(-n4c(=O)cc(C(F)(F)F)n(C)c4=O)cc23)cc1C (stereo not shown) [Example 550] in your reply.
Out: 9.0

In: Supply measured herbicidal effect rating, CYPSE of CC(C)S(=O)(=O)NC(=O)COc1ccccc1-c1nsc2ccc(-n3c(=O)cc(C(F)(F)F)n(C)c3=O)cc12 [Example 555] in your reply.
Out: 9.0

In: Supply measured herbicidal effect rating, CYPSE of Cc1ccc(OC(C)(C)C(=O)OCCCl)c(-c2nsc3ccc(-n4c(=O)cc(C(F)(F)F)n(C)c4=O)cc23)c1 [Example 544] in your reply.
Out: 4.0

In: Supply measured herbicidal effect rating, CYPSE of CNC(=O)COc1ccccc1-c1nsc2ccc(-n3c(=O)cc(C(F)(F)F)n(C)c3=O)cc12 [Example 562] in your reply.
Out: 9.0

In: Supply measured herbicidal effect rating, CYPSE of Cn1c(C(F)(F)F)cc(=O)n(-c2ccc3snc(-c4ccccc4OCC(N)=O)c3c2)c1=O [Example 548] in your reply.
Out: 9.0

In: Supply measured herbicidal effect rating, CYPSE of Cc1ccc(OC(C)C(=O)c2ccc(C)c(C)c2)c(-c2nsc3ccc(-n4c(=O)cc(C(F)(F)F)n(C)c4=O)cc23)c1 (stereo not shown) [Example 542] in your reply.
Out: 0.0
